- target-of-assay: human D3 receptor (Homo sapiens (Human))
- Sequence (P35462 whole entry): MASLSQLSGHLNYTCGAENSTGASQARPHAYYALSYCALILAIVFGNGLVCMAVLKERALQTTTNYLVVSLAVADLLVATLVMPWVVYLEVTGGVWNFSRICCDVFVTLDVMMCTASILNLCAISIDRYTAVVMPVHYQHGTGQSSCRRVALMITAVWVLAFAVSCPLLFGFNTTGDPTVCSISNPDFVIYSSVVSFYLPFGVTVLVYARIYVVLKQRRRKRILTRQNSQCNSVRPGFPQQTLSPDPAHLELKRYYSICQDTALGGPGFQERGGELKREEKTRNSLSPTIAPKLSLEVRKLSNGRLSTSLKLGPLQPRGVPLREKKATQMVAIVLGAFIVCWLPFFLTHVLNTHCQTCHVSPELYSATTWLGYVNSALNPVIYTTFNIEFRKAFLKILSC
pKi: −log10 of the molar value.
# pKi per record follows

- chem-smiles: "O=C(CC1CCOCC1)N[C@H]1CC[C@H](CCN2CCC(c3coc4ccccc34)CC2)CC1"
  pKi: 8.50
- chem-smiles: "N#Cc1ccc(C(=O)N[C@H]2CC[C@H](CCN3CCC(c4coc5ccccc45)CC3)CC2)cc1"
  pKi: 8.57
- chem-smiles: "CCS(=O)(=O)N[C@H]1CC[C@H](CCN2CCC(c3coc4ccccc34)CC2)CC1"
  pKi: 8.54
- chem-smiles: "CS(=O)(=O)CC(=O)N[C@H]1CC[C@H](CCN2CCC(c3coc4ccccc34)CC2)CC1"
  pKi: 8.84
- chem-smiles: "CS(=O)(=O)c1ccc(C(=O)N[C@H]2CC[C@H](CCN3CCC(c4coc5ccccc45)CC3)CC2)s1"
  pKi: 8.41
- chem-smiles: "O=C(CC(F)(F)F)N[C@H]1CC[C@H](CCN2CCC(c3coc4ccccc34)CC2)CC1"
  pKi: 9.00
- chem-smiles: "CO[C@H]1CC[C@H](CC(=O)N[C@H]2CC[C@H](CCN3CCC(c4coc5ccccc45)CC3)CC2)CC1"
  pKi: 8.51
